testSystem: NLRP3 (Homo sapiens)
Construct: Seed THP-1 cells (25,000 cells/well) containing 1.0 μg/ml LPS in 40 μl of RPMI medium
Sequence (Q96P20 whole entry): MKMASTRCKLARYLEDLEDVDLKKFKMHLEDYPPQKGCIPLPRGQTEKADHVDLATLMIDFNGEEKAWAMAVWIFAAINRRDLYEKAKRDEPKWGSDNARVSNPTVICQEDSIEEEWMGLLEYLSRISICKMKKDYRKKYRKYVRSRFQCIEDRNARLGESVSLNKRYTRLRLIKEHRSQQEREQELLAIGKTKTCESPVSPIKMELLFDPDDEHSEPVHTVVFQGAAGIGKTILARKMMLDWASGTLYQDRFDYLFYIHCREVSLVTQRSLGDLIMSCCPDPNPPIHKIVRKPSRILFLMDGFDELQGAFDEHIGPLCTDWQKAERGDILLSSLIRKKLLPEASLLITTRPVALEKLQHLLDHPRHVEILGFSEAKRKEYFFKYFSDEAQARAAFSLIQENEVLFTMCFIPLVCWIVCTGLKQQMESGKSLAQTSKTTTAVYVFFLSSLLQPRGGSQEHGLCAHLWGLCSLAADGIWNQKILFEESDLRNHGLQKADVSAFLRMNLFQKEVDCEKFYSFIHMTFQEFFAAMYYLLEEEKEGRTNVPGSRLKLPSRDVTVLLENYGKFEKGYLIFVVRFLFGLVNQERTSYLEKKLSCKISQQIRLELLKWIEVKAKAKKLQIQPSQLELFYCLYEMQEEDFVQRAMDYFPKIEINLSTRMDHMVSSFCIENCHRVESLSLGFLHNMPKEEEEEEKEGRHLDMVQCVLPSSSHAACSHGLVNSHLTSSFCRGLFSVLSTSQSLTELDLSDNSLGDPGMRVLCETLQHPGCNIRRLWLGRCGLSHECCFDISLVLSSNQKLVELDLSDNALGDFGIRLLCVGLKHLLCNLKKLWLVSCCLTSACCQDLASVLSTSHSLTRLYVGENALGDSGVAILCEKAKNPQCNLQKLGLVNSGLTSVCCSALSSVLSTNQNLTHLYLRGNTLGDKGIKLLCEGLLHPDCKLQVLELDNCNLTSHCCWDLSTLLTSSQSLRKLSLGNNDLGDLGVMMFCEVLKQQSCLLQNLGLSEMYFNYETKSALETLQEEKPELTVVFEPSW
assayMethodText: THP-1 Cells Pyroptosis Assay
conditionInfo: THP-1 cells with 1.0 μg/ml LPS; compound 3 hours; nigericin 5 μM 1 hr; resazurin readout
propertyName: IC50 (nM)
The answer is to be given in nM; state only the numeric part.

Q) Sample CCN1CCC[C@@H](Nc2nc3nc(-c4ccc(Cl)cc4O)c(Cl)cc3o2)C1 [Example 127] — what was its IC50?
A) 20.6

Q) IC50 for Cc1cc(C(F)(F)F)cc(O)c1-c1ccc2oc(N3CCO[C@@H]4CNC[C@H]43)nc2n1 [Example 64A] ?
A) 1.7

Q) State the recorded IC50 for this entry: Cc1cc(C(F)(F)F)cc(O)c1-c1ccc2oc(N[C@@H]3C[C@H]3N(C)C)nc2n1 [Example 55]
A) 17.8
